Target of assay: hP2X1R (Homo sapiens, UniProt P51575)
Construct: expressed in transfected cells; host or cells: CHO-K1
Sequence (P51575 whole entry): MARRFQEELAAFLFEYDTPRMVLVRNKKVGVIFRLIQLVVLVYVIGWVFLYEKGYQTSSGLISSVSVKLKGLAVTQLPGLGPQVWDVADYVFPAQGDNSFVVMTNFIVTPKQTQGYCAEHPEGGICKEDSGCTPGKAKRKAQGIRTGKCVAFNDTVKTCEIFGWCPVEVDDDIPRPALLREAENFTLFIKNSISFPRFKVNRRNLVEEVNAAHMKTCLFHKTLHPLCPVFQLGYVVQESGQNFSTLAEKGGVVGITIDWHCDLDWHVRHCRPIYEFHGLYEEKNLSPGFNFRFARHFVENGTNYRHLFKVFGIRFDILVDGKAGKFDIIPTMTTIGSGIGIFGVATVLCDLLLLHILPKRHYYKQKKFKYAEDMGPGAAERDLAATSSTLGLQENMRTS
Experiment: cell-based
Test context: CHO-K1; percent inhibition at 30 μM; agonist α,β-MeATP 1.0 μM; read-out: hP2X1R % inhib.
Measure name: inhibition at 30 µM

>>> assay_value("CCc1cc2c(c3ccccc13)NC(=O)CC(=O)N2c1cccc(-c2noc(=S)[nH]2)c1 [Compound 21p]")
"6%"
>>> assay_value("O=C1CC(=O)N(c2cccc(-c3noc(=S)[nH]3)c2)c2cc(C#Cc3cccnc3)c3ccccc3c2N1 [Compound 21n]")
"9%"
>>> assay_value("O=C1CC(=O)N(c2cncc(-c3noc(=S)[nH]3)c2)c2ccc3ccccc3c2N1 [Compound 21t]")
"15%"
>>> assay_value("O=C1CC(=O)N(c2cccc(-c3noc(=S)[nH]3)n2)c2ccc3ccccc3c2N1 [Compound 21v]")
"≤ 31%"
